Where do these numbers come from? They come from patent US20240391948A1.

Field: IC50. Provide a value for each of the molecules that follow.
system: U937 cells (human monocytic cell line); assay: Pam2CSK4-induced TNF-α secretion inhibition in PMA-differentiated U937 cells; type: cell-based; settings: U-937, U937 cells differentiated with PMA, read-out: TNF-α production inhibition grade (IC50)

Sample records with IC50:
[
  {
    "Record Smiles": "C[C@H](CCC(=O)NC[C@@H](C)S(=O)(=O)O)[C@H]1CC[C@H]2[C@@H]3CC[C@@H]4C[C@H](O)CC[C@]4(C)[C@H]3CC[C@]12C",
    "Assay System": "U937 cells (human monocytic cell line)",
    "IC50": "500 to 1000 nM"
  },
  {
    "Record Smiles": "C[C@H](CCC(=O)N1CCC(S(=O)(=O)O)CC1)[C@H]1CC[C@H]2[C@@H]3CC[C@@H]4C[C@H](O)CC[C@]4(C)[C@H]3CC[C@]12C",
    "Assay System": "U937 cells (human monocytic cell line)",
    "IC50": "500 to 1000 nM"
  },
  {
    "Record Smiles": "C[C@H](CCC(=O)N(CCS(=O)(=O)O)Cc1cccnc1)[C@H]1CC[C@H]2[C@@H]3CC[C@@H]4CC(=O)CC[C@]4(C)[C@H]3CC[C@]12C",
    "Assay System": "U937 cells (human monocytic cell line)",
    "IC50": "1000 to 2000 nM"
  },
  {
    "Record Smiles": "CC[C@H]1[C@@H](O)[C@@H]2[C@H](CC[C@]3(C)[C@@H]([C@H](C)CCC(=O)N[C@H](C)CS(=O)(=O)O)CC[C@@H]23)[C@@]2(C)CC[C@@H](O)C[C@@H]12",
    "Assay System": "U937 cells (human monocytic cell line)",
    "IC50": "1000 to 2000 nM"
  },
  {
    "Record Smiles": "C[C@H](CCC(=O)N[C@@H](C)CS(=O)(=O)O)[C@H]1CC[C@H]2[C@@H]3CC[C@@H]4C[C@H](O)CC[C@]4(C)[C@H]3C[C@H](O)[C@]12C",
    "Assay System": "U937 cells (human monocytic cell line)",
    "IC50": "< 500 nM"
  },
  {
    "Record Smiles": "CC[C@H]1[C@@H](O)[C@@H]2[C@H](CC[C@]3(C)[C@@H]([C@H](C)CCC(=O)N[C@@H](CS(=O)(=O)O)c4ccccc4)CC[C@@H]23)[C@@]2(C)CC[C@@H](O)C[C@@H]12",
    "Assay System": "U937 cells (human monocytic cell line)",
    "IC50": "1000 to 2000 nM"
  },
  {
    "Record Smiles": "C[C@H](CCC(=O)N(CCS(=O)(=O)O)Cc1ccccc1)[C@H]1CC[C@H]2[C@@H]3CC[C@@H]4C[C@H](O)CC[C@]4(C)[C@H]3C[C@H](O)[C@]12C",
    "Assay System": "U937 cells (human monocytic cell line)",
    "IC50": "500 to 1000 nM"
  },
  {
    "Record Smiles": "CC[C@H]1[C@@H](O)[C@@H]2[C@H](CC[C@]3(C)[C@@H]([C@H](C)CCC(=O)N[C@H](CS(=O)(=O)O)C(C)C)CC[C@@H]23)[C@@]2(C)CC[C@@H](O)C[C@@H]12",
    "Assay System": "U937 cells (human monocytic cell line)",
    "IC50": "500 to 1000 nM"
  }
]

Hello, I would appreciate it if you could give IC50 for each entry below.
1. C[C@H](CCC(=O)N1CCN(S(=O)(=O)O)CC1)[C@H]1CC[C@H]2[C@@H]3CC[C@@H]4C[C@H](O)CC[C@]4(C)[C@H]3C[C@H](O)[C@]12C
2. CC[C@H]1[C@@H](O)[C@@H]2[C@H](CC[C@]3(C)[C@@H]([C@H](C)CCC(=O)N(C)CCS(=O)(=O)O)CC[C@@H]23)[C@@]2(C)CC[C@@H](O)C[C@@H]12
3. CC[C@H]1[C@@H](O)[C@@H]2[C@H](CC[C@]3(C)[C@@H]([C@H](C)CCC(=O)N(CCS(=O)(=O)O)C4CCOCC4)CC[C@@H]23)[C@@]2(C)CC[C@@H](O)C[C@@H]12
4. C[C@H](CCC(=O)N[C@@H](CO)CS(=O)(=O)O)[C@H]1CC[C@H]2[C@@H]3CC[C@@H]4C[C@H](O)CC[C@]4(C)[C@H]3C[C@H](O)[C@]12C
5. C[C@H](CCC(=O)N[C@@H](Cc1ccccc1)CS(=O)(=O)O)[C@H]1CC[C@H]2[C@@H]3CC[C@@H]4CC(=O)CC[C@]4(C)[C@H]3CC[C@]12C
6. C[C@H](CCC(=O)N[C@H](Cc1ccccc1)CS(=O)(=O)O)[C@H]1CC[C@H]2[C@@H]3[C@H](O)C[C@@H]4C[C@H](O)CC[C@]4(C)[C@H]3C[C@H](O)[C@]12C
7. CC[C@H]1[C@@H](O)[C@@H]2[C@H](C[C@H](O)[C@]3(C)[C@@H]([C@H](C)CCC(=O)N4CCC[C@H]4CS(=O)(=O)O)CC[C@@H]23)[C@@]2(C)CC[C@@H](O)C[C@@H]12
8. CC(C)N(CCS(=O)(=O)O)C(=O)CC[C@@H](C)[C@H]1CC[C@H]2[C@@H]3[C@H](O)C[C@@H]4C[C@H](O)CC[C@]4(C)[C@H]3C[C@H](O)[C@]12C

["< 500 nM", "≥ 2000 nM", "< 500 nM", "1000 to 2000 nM", "500 to 1000 nM", "< 500 nM", "500 to 1000 nM", "1000 to 2000 nM"]

* * *

tested on: J774A.1 (Mouse BALB/c monocyte macrophage cell line) cells; assay: LPS-induced TNF-α secretion inhibition in J774A.1 cells; format: cell-based; details: J774.A1, 1 μM compound, graded compared to taurodeoxycholic acid (positive control), read-out: TNF-α production inhibition grade
Assay Readout: inhibition at 1 µM

Sample records with inhibition at 1 µM:
[
  {
    "Molecule": "C[C@H](CCC(=O)N(CCS(=O)(=O)O)c1ccccc1)[C@H]1CC[C@H]2[C@@H]3CC[C@@H]4CC(=O)CC[C@]4(C)[C@H]3CC[C@]12C [NC30037]",
    "inhibition at 1 µM": "20 to 50%"
  },
  {
    "Molecule": "C[C@H](CCC(=O)N[C@@H](CO)CS(=O)(=O)O)[C@H]1CC[C@H]2[C@@H]3[C@H](O)C[C@@H]4C[C@H](O)CC[C@]4(C)[C@H]3C[C@H](O)[C@]12C [NC20024]",
    "inhibition at 1 µM": "< 20%"
  },
  {
    "Molecule": "CC(C)[C@@H](CS(=O)(=O)O)NC(=O)CC[C@@H](C)[C@H]1CC[C@H]2[C@@H]3CC[C@@H]4C[C@H](O)CC[C@]4(C)[C@H]3CC[C@]12C [NC10067]",
    "inhibition at 1 µM": "< 20%"
  }
]

Please find the next molecule below.
Which inhibition at 1 µM is reported for this molecule? C[C@H](CCC(=O)N(C)CCS(=O)(=O)O)[C@H]1CC[C@H]2[C@@H]3[C@H](O)C[C@@H]4C[C@H](O)CC[C@]4(C)[C@H]3C[C@H](O)[C@]12C [NC20004]
< 20%

* * *

Field: pIC50. Provide a value for each of the compounds that follow.
system: U937 cells (human monocytic cell line); experiment: BzATP-induced IL-1β secretion inhibition in PMA-differentiated U937 cells; format: cell-based; settings: U-937, U937 cells differentiated with PMA, read-out: IL-1β production inhibition grade (IC50)
pIC50: −log10 of the molar value.

[
  {
    "Record Smiles": "C[C@H](CCC(=O)N[C@@H](CS(=O)(=O)O)c1ccccc1)[C@H]1CC[C@H]2[C@@H]3[C@H](O)C[C@@H]4C[C@H](O)CC[C@]4(C)[C@H]3C[C@H](O)[C@]12C",
    "pIC50": "7.00 to 7.30"
  }
]

Please find the next compound below.
Which pIC50 is reported for this compound? `CC[C@H]1[C@@H](O)[C@@H]2[C@H](C[C@H](O)[C@]3(C)[C@@H]([C@H](C)CCC(=O)N4CC(S(=O)(=O)O)C4)CC[C@@H]23)[C@@]2(C)CC[C@@H](O)C[C@@H]12`
> 7.30

* * *

system: U937 cells (human monocytic cell line); experiment: Pam2CSK4-induced TNF-α secretion inhibition in PMA-differentiated U937 cells; type: cell-based; conditions: U-937, U937 cells differentiated with PMA, read-out: TNF-α production inhibition grade (IC50)
Assay Readout: IC50

Sample records with IC50:
[
  {
    "Compound": "CC[C@H]1[C@@H](O)[C@@H]2[C@H](C[C@H](O)[C@]3(C)[C@@H]([C@H](C)CCC(=O)N4CCC[C@@H](S(=O)(=O)O)C4)CC[C@@H]23)[C@@]2(C)CC[C@@H](O)C[C@@H]12 [NC50010]",
    "IC50": "≥ 2000 nM"
  },
  {
    "Compound": "CC(C)C[C@H](CS(=O)(=O)O)NC(=O)CC[C@@H](C)[C@H]1CC[C@H]2[C@@H]3[C@H](O)C[C@@H]4C[C@H](O)CC[C@]4(C)[C@H]3C[C@H](O)[C@]12C [NC20031]",
    "IC50": "< 500 nM"
  },
  {
    "Compound": "CC[C@H]1[C@@H](O)[C@@H]2[C@H](CC[C@]3(C)[C@@H]([C@H](C)CCC(=O)NC4(CS(=O)(=O)O)CC4)CC[C@@H]23)[C@@]2(C)CC[C@@H](O)C[C@@H]12 [NC40032]",
    "IC50": "1000 to 2000 nM"
  }
]

Please find the next compound below.
Fill in the recorded IC50 for this compound, with U937 cells (human monocytic cell line) as test system: CC[C@H]1[C@@H](O)[C@@H]2[C@H](C[C@H](O)[C@]3(C)[C@@H]([C@H](C)CCC(=O)N[C@H](Cc4ccccc4)CS(=O)(=O)O)CC[C@@H]23)[C@@]2(C)CC[C@@H](O)C[C@@H]12 [NC50015]
1000 to 2000 nM
